Measured values drawn from the OPERA property sets (Mansouri et al. 2018) for this set.

Kindly state logP for each of the entries shown.
Give bare numbers.

- NNC(=O)Nc1ccccc1C(=O)O: -0.49
- Cc1ccc(NC(=O)NN)cc1: 0.69
- NNC(=O)Nc1ccccc1[N+](=O)[O-]: -0.47
- NNC(=O)Nc1ccc(C(=O)O)cc1: -0.21
- Cc1cccc(NC(=O)NN)c1: 0.68

Hi! Can you tell me logP for each of these compounds?
1. NNC(=O)Nc1ccc(Cl)cc1
2. NNC(=O)Nc1ccc([N+](=O)[O-])cc1
3. COc1ccc(NC(=O)NN)cc1
4. NNC(=O)Nc1ccccc1O
5. NNC(=O)Nc1cccc(C(=O)O)c1
6. NNC(=O)Nc1ccccc1

Found:
0.87
-0.18
0.17
0.33
-0.16
0.16

Lookup: Consider the compound `COc1ccccc1NC(=O)NN` and give its measured logP.
Found: -0.15
